Test system: Escherichia coli
Test: bacteriostatic activity (MIC), Escherichia coli
Format: cell-based
Conditions: Escherichia coli, 48 h, Table VI, bacteriostase containing 20% of serum; read-out: M.I.C.
Structures can show the parent of a compound that is named as a salt.
Documented MIC across a set of molecules
Report only the number, with the unit µg/mL understood.

{"Molecule": "CCCCCCCCCCOCC(O)CN.Cl (centres unmarked)", "Target desc": "Escherichia coli", "MIC, µg/mL": 60}
{"Molecule": "CCCCCCCCC(O)CN (centres unmarked)", "Target desc": "Escherichia coli", "MIC, µg/mL": 200}
{"Molecule": "CCCCCCCCCCSCC(O)CN (centres unmarked) [Compound 14, hydrochloride]", "Target desc": "Escherichia coli", "MIC, µg/mL": 250}
{"Molecule": "CCCCCCCCCCCC(O)CN (centres unmarked) [Compound 8, 2-hydroxy-1-amino tridecane]", "Target desc": "Escherichia coli", "MIC, µg/mL": 75}
{"Molecule": "CCCCCCCCCCCCOCC(O)CN.Cl (centres unmarked)", "Target desc": "Escherichia coli", "MIC, µg/mL": 100}
{"Molecule": "CCCCCCCCCC(O)CN (centres unmarked)", "Target desc": "Escherichia coli", "MIC, µg/mL": 150}

[ask] Consider the molecule CCCCCCCCCCOCC(O)CN (centres unmarked) [Compound 13, 3-decyloxy-2-hydroxy-1-aminopropane] . State its measured MIC.
[reply] 250

[ask] Supply MIC value. Item: CCCCCCCCCCOCC(O)C[N+](C)(C)C (centres unmarked)
[reply] 200

[ask] Complete the entry with MIC for Br.CCCCCCCCCCOCC(O)CN (centres unmarked)
[reply] 60

[ask] Assign MIC to the following record: CCCCCCCCOCC(O)CN.Cl (centres unmarked)
[reply] 300
